The reported numbers originate from the Immune Epitope Database (IEDB).

target: HLA-A*30:01; assay: IEDB peptide-MHC binding, purified MHC/competitive/fluorescence; filed as Kd, often an IC50 or EC50 that approximates it; bounds were set here for any values at or beyond the usual limits of such assays; settings: source organism: Francisella tularensis subsp. tularensis FSC198
pKd: −log10 of the molar value.
Readout: pKd

Using known records, supply pKd for `EFKRRLKDL`
≤ 4.70

###

molecular target: HLA-B*08:02; assay: IEDB peptide-MHC binding, purified MHC/direct/fluorescence; filed as Kd, often an IC50 or EC50 that approximates it; bounds were set here for any values at or beyond the usual limits of such assays; settings: source organism: Giardia lamblia ATCC 50803
Measured Kd of individual entries

INSERT INTO results (biosequence, reading) VALUES
  ('YIASIFMPR', '≥ 20 µM');

Could you now consider this next sequence?
Using known records, supply Kd for `IVKYKQYLK`
≥ 20 µM

###

molecular target: HLA-A*02:11; assay: IEDB peptide-MHC binding, purified MHC/direct/fluorescence; filed as Kd, often an IC50 or EC50 that approximates it; bounds were set here for any values at or beyond the usual limits of such assays; details: source organism: Coxiella burnetii Q321
pKd: −log10 of the molar value.
Readout: pKd

Name the recorded pKd of `DGAEGINPY` , assay system HLA-A*02:11.
≤ 4.70

###

target: HLA-A*69:01; assay: IEDB peptide-MHC binding, purified MHC/direct/fluorescence; filed as Kd, often an IC50 or EC50 that approximates it; bounds were set here for any values at or beyond the usual limits of such assays; details: source organism: Yersinia pestis Nepal516
pKd: −log10 of the molar value.
Readout: pKd

Using known records, supply pKd for `LSEEIGLDL`
≤ 4.70

###

target: HLA-A*68:02; assay: IEDB peptide-MHC binding, purified MHC/direct/fluorescence; filed as Kd, often an IC50 or EC50 that approximates it; bounds were set here for any values at or beyond the usual limits of such assays; details: source organism: Coxiella burnetii Q321
pKd: −log10 of the molar value.
Readout: pKd

Using known records, supply pKd for `DGAEGINPY`
≤ 4.70

###

Measured Kd of individual entries
molecular target: HLA-A*69:01; assay: IEDB peptide-MHC binding, purified MHC/direct/fluorescence; filed as Kd, often an IC50 or EC50 that approximates it; bounds were set here for any values at or beyond the usual limits of such assays; details: source organism: SARS-CoV1
Report the figure in nM without appending any unit label.

INSERT INTO assay_data (biosequence, readout, reading) VALUES
  ('FVDGVPFVV', 'Kd', 23.3);

Could you now consider this next sequence?
Name the recorded Kd of `LLALQQLEV` , assay system HLA-A*69:01.
242

###

molecular target: HLA-B*27:05; assay: IEDB peptide-MHC binding, purified MHC/direct/fluorescence; filed as Kd, often an IC50 or EC50 that approximates it; bounds were set here for any values at or beyond the usual limits of such assays; details: source organism: Influenza A virus (A/mallard/NZ/1/97(H5N2))
Readout: Kd

Using known records, supply Kd for `IAGFIEGGW`
≥ 20 µM

###

molecular target: HLA-A*30:01; test: IEDB peptide-MHC binding, purified MHC/competitive/radioactivity; filed as Kd, often an IC50 or EC50 that approximates it; bounds were set here for any values at or beyond the usual limits of such assays; settings: source organism: Vaccinia virus WR
Output Yes for records whose Kd is lower than 500 nM, No for records at or above 500 nM.

Take a look at these entries with their results.
INSERT INTO assay_data (biosequence, category) VALUES
  ('MVRLPYKDA', 'Yes'),
  ('GSKASCVLK', 'Yes'),
  ('CLRCSKLNL', 'Yes'),
  ('KLRCRNTEA', 'Yes'),
  ('ATARSSPEK', 'Yes'),
  ('EQKLRPNSF', 'No'),
  ('EKTQYTNDF', 'No');

Okay, now this sequence:
Please state whether Kd is below 500 nM for `IIIPLSVSI`
No
